# test-target: PIP4K2B (Homo sapiens (Human), UniProt P78356)
# Sequence (P78356 whole entry): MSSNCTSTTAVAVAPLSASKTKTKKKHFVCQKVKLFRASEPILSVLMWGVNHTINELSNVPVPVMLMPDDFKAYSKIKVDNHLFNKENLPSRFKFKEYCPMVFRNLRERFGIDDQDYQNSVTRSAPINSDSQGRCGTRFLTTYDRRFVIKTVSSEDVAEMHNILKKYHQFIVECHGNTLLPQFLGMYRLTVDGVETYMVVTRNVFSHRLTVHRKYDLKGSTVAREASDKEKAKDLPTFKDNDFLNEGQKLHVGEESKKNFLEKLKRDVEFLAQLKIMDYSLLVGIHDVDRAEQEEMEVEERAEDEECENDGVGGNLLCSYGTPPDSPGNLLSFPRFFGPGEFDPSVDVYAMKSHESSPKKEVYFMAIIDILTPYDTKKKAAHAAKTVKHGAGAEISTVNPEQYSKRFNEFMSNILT
Items are presented alongside their recorded Kd.

In the examples that follow, each entry is paired with its recorded Kd.
O=C(Nc1cncc(Nc2ncc(Cl)c(-c3cccc(-c4cccnc4)c3)n2)c1)c1ccccc1 = > 10 µM
Cc1ncsc1-c1ccc([C@H](C)NC(=O)[C@@H]2C[C@@H](O)CN2C(=O)[C@@H](NC(=O)CCCCCC(=O)N2CCC3(CC2)CCN(c2cncc(Nc4ncc(Cl)c(-c5cccc(-c6ccccc6)c5)n4)c2)C3=O)C(C)(C)C)cc1 = > 10 µM

Give Kd for this entry on PIP4K2B (Homo sapiens (Human), UniProt P78356): O=C1CC[C@H]2COc3ncc(Nc4ncc(Cl)c(-c5cccc(-c6ccccc6)c5)n4)cc3N12
> 10 µM

Data origin: patent US20240277852A1
